# assay.details: Cytotoxicity against mouse BV-2 cells assessed as reduction in cell viability measured after 24 hrs by MTT assay
# Type: cell-based
Checkbox rule: CC50 at 24 h lower than 50 µM = yes (1); CC50 at 24 h not lower than 50 µM = no (0).

Example results:
1) Cc1c2c(cc(C(C)C)cc1=O)[C@@H](C)CC2; no (0)
2) Cc1c2c(cc(C(C)(C)O)cc1=O)[C@@H](C)C[C@@H]2O; yes (1)
3) Cc1c2c(cc(C(C)C)cc1=O)[C@@](C)(O)CC2; no (0)
4) Cc1c2c(cc(C(C)C)cc1=O)[C@@H](C)C[C@H]2O; no (0)
5) CC(C)c1cc2c(c(CO)c(=O)c1)[C@H](O)C[C@@H]2C; no (0)
6) Cc1c2c(cc(C(C)C)cc1=O)[C@@H](C)C[C@@H]2O; yes (1)

Query: Does CNC(=N)NCCC[C@H](N)C(=O)O have CC50 at 24 h strictly under 50 µM?
Result: no (0)

Query: Does CC(C)c1cc2c(c(CO)c(=O)c1)CC[C@@]2(C)O have CC50 at 24 h strictly under 50 µM?
Result: no (0)
